Origin of values: BigSolDB 2.1

settings: in acetonitrile, 303.15 K

[
  {
    "itemSmiles": "O=C(O)c1ccc(Cl)cc1Cl",
    "solubility (mole fraction)": 0.00786
  }
]

###

conditions: in acetonitrile, 283.15 K

[
  {
    "itemSmiles": "O=C(O)c1ccc(Cl)cc1Cl",
    "solubility (mole fraction)": 0.00451
  }
]

###

conditions: in isopropanol, 288.15 K
measure: solubility (mole fraction)

[
  {
    "itemSmiles": "O=C(O)c1ccc(Cl)cc1Cl",
    "recordedMeasurement": 0.0501
  }
]

###

details: in ethyl acetate, 283.15 K
measure: solubility (mole fraction)

[
  {
    "itemSmiles": "O=C(O)c1ccc(Cl)cc1Cl",
    "recordedMeasurement": 0.0308
  }
]

###

conditions: in acetonitrile, 273.15 K
measure: solubility (mole fraction)

[
  {
    "itemSmiles": "O=C(O)c1ccc(Cl)cc1Cl",
    "measure": "solubility (mole fraction)",
    "recordedMeasurement": 0.00318
  }
]

###

settings: in ethanol, 298.15 K
measure: solubility (mole fraction)

[
  {
    "itemSmiles": "O=C(O)c1ccc(Cl)cc1Cl",
    "recordedMeasurement": 0.0591
  }
]

###

settings: in ethyl acetate, 288.15 K

[
  {
    "itemSmiles": "O=C(O)c1ccc(Cl)cc1Cl",
    "solubility (mole fraction)": 0.0347
  }
]

###

details: in n-butanol, 273.15 K
measure: solubility (mole fraction)

[
  {
    "itemSmiles": "O=C(O)c1ccc(Cl)cc1Cl",
    "recordedMeasurement": 0.0374
  }
]

###

settings: in toluene, 288.15 K

[
  {
    "itemSmiles": "O=C(O)c1ccc(Cl)cc1Cl",
    "solubility (mole fraction)": 0.00284
  }
]

###

settings: in n-propanol, 298.15 K

[
  {
    "itemSmiles": "O=C(O)c1ccc(Cl)cc1Cl",
    "solubility (mole fraction)": 0.0575
  }
]

###

details: in acetonitrile, 278.15 K

[
  {
    "itemSmiles": "O=C(O)c1ccc(Cl)cc1Cl",
    "solubility (mole fraction)": 0.00361
  }
]

###

conditions: in isopropanol, 293.15 K

[
  {
    "itemSmiles": "O=C(O)c1ccc(Cl)cc1Cl",
    "solubility (mole fraction)": 0.0565
  }
]

###

details: in ethanol, 303.15 K

[
  {
    "itemSmiles": "O=C(O)c1ccc(Cl)cc1Cl",
    "solubility (mole fraction)": 0.065
  }
]

###

conditions: in methanol, 278.15 K
measure: solubility (mole fraction)

[
  {
    "itemSmiles": "O=C(O)c1ccc(Cl)cc1Cl",
    "recordedMeasurement": 0.0294
  }
]

###

details: in isobutanol, 313.15 K
measure: solubility (mole fraction)

[
  {
    "itemSmiles": "O=C(O)c1ccc(Cl)cc1Cl",
    "measure": "solubility (mole fraction)",
    "recordedMeasurement": 0.066
  }
]

###

conditions: in acetonitrile, 288.15 K

[
  {
    "itemSmiles": "O=C(O)c1ccc(Cl)cc1Cl",
    "solubility (mole fraction)": 0.00531
  }
]

###

settings: in n-butanol, 313.15 K
measure: solubility (mole fraction)

[
  {
    "itemSmiles": "O=C(O)c1ccc(Cl)cc1Cl",
    "recordedMeasurement": 0.0814
  }
]
